The reported measurements were obtained from PubChem BioAssay AID1159580.

# protocol text: chemical genetic growth profiling, strain panel (AID 1159580);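 also: tested at 20 µM; growth read once vehicle control cultures reached saturation at 30 °C; 1 = growth at the plate median or of vehicle wells; lower values mean less growth of the strain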
# condition set: S. cerevisiae deletion strains, growth OD, locus YNL233W, strain BNI4, hits give low values
Out of some 5,500 compounds screened, about 2,000 (36%) were called active. Another 18% or so got no clear call; they are omitted. Some of the results follow.
property measured: normalized growth

# molecule, observed measurement
measured = [
    ("COc1cccc(O)c1O", 1.05),
    ("COc1cc2c(cc1OC)-c1c(oc3c4c(ccc3c1=O)OC(C(C)C)C4)CO2 (stereo unspecified)", 0.984),
    ("C=C(C)[C@H]1Cc2c(ccc3c2O[C@@H]2COc4cc(OC)c(OC)cc4[C@@H]2C3=O)O1", 0.976),
    ("CC[C@H]1OC(=O)[C@H](C)[C@@H](O[C@H]2C[C@@](C)(OC)[C@@H](O)[C@H](C)O2)[C@H](C)[C@@H](O[C@@H]2O[C@H](C)C[C@H](N(C)C)[C@H]2O)[C@](C)(O)C[C@@H](C)[C@@H]2N[C@@H](COCCOC)O[C@H]([C@H]2C)[C@]1(C)O", 1.03),
    ("COc1c2c(cc3c1OCO3)C13C=C[C@H](OC)CC1N(C2)CC3O (stereo partly specified)", 1.01),
    ("O=C(O)[C@H](O)[C@@](O)(Cc1ccc(O)cc1)C(=O)O", 1.04),
    ("CC(N)C(O)c1ccc(O)c(O)c1 (stereo unspecified)", 1.02),
    ("CC1(C)C(=O)[C@@H]2O[C@@H]2[C@@]2(C)C1CC(=O)[C@]1(C)C2CC[C@@]2(C)[C@H](c3ccoc3)OC(=O)[C@H]3O[C@]321 (stereo partly specified)", 0.964),
    ("COc1cc2c(cc1OC)[C@@H]1C(=O)c3ccc4c(c3O[C@@H]1CO2)CC(C(C)C)O4 (stereo partly specified)", 0.986),
    ("CCc1cccc2c3c([nH]c12)C(CC)(CC(=O)O)OCC3 (stereo unspecified)", 1.01),
    ("O=c1[nH]cnc2c1ncn2C1O[C@H](CO)[C@@H](O)[C@H]1O (stereo partly specified)", 1.02),
]
